System: SK-OV-3 ovarian
assay.summary: NCI tumour cell line growth inhibition, 48 h; in the data active = GI50 below about 0.43 µM; inactive = the rest
Possible outcomes: label 1 for active, label 0 for inactive

compound	category
CCCCC[C@H](O)/C=C/[C@@H]1[C@@H](C/C=C\CCCC(=O)O)[C@@H](O)C[C@H]1O	label 0
O=C(Nc1cccc(-n2ccc3c(NC(=O)c4ccccc4)nccc32)c1)c1ccc(N2CCOCC2)c(C(F)(F)F)c1	label 1
COc1ccc(C2CC(c3cc(OC)c(OC)c(OC)c3)=NO2)cc1OCCCCOc1cc2c(cc1OC)C(=O)N1CCC[C@H]1C=N2 (stereo partly specified)	label 0
Cn1cc(-c2ccc3c(Nc4cccc(NC(=O)Nc5cccc(F)c5)c4)ncnc3c2)cn1	label 0
Nc1ccc2c(c1)C(=O)C(=O)c1c-2nc2ccccn12	label 0
COc1ccc2[nH]c(=O)c3c4ccccc4cn3c2c1	label 0

---

Tested on: MDA-MB-231 breast
assay.summary: NCI tumour cell line growth inhibition, 48 h
# TGI values compiled below

compound	test.target	bound.operator	TGI (µM)
O=C1/C(=C/c2ccccc2)CCCC1CN1CCCCC1 (stereo unspecified)	MDA-MB-231 breast	=	3.89
CCOC(=O)NC(Nc1ncccn1)(C(F)(F)F)C(F)(F)F	MDA-MB-231 breast	>	100
O=C[C@@H](CO)O[C@H](C=O)c1c[nH]c(=O)[nH]c1=O	MDA-MB-231 breast	=	389
Nc1c(C(=O)c2cccc(CCCN3CCOCC3)c2)cnn1-c1ccc(F)cc1	MDA-MB-231 breast	>	25
Cc1c2c(c(C)n1-c1ccccc1)C(=O)N(CCCCN1CCN(c3ccccc3)CC1)C2=O	MDA-MB-231 breast	=	24.1
COc1cc2c(/C=C3/C(=O)N(C)c4ccccc43)c(Cl)[nH]c2cc1C	MDA-MB-231 breast	=	3.68
O=C(Nn1c(-c2ccccc2)nc2ccccc2c1=O)c1ccc(CS)cc1	MDA-MB-231 breast	=	96.1
COc1ccc2nc3cc(Cl)ccc3c(NCCCN(Cc3cc(OC)c(OC)c(OC)c3)Cc3cc(OC)c(OC)c(OC)c3)c2c1	MDA-MB-231 breast	=	10.6
CC1(C)CC(=O)C(CCC(=O)/C=C/c2ccccc2)C(=O)C1	MDA-MB-231 breast	>	100
CCCCCCCCCCCCNC(C)=O	MDA-MB-231 breast	=	28.6
COc1ccc(C2=CC(c3ccccc3)n3nnnc3N2)cc1 (stereo unspecified)	MDA-MB-231 breast	>	100

---

System: NCI-H522 lung
assay.summary: NCI tumour cell line growth inhibition, 48 h
value.type: TGI (µM)

compound	bound.operator	recorded.result
CC(=O)OC1=c2ccccc2=C(O)C2C1C=NN2C(C)=O (stereo unspecified)	>	100
O=C(NC1CCN(Cc2ccccc2)CC1)c1cc(-c2ccncc2)nc2ccc(Cl)cc12	=	60.6
CCC(C)n1c(C)nc2c1C(=O)c1ccccc1C2=O (stereo unspecified)	>	100
Cn1cc(-c2ccc3c(Nc4cccc(NC(=O)Nc5cccc(F)c5)c4)ncnc3c2)cn1	=	15.9
O=C1/C(=C/c2ccccc2)CCCC1CN1CCCCC1 (stereo unspecified)	=	2.05
CCOC(=O)NC(Nc1ncccn1)(C(F)(F)F)C(F)(F)F	>	100
CCOC(=O)C1(C(N)=O)C(=O)c2ccncc2C1=O (stereo unspecified)	>	100
NCCSc1nc2ccccc2s1	=	75.7
CC1=NCCN=C(C)C1N=Nc1ccc2nc(C)[nH]c2c1	=	61.8
C=C(C)C(=O)O[C@H]1C/C(CO)=C/CCC(=C)C(OC(C)=O)[C@H]2OC(=O)C(=C)[C@H]12 (stereo partly specified)	=	11
OC1[C@H]([C@H]2CCCC[C@@H]2O)CCC[C@@H]1[C@@H]1CCCC[C@H]1O (stereo partly specified)	>	100
O=C(O)c1ccccc1NC(c1ccccc1)c1ccc2cccnc2c1O (stereo unspecified)	=	23.3
Cc1ccccc1C(=O)c1c(O)c2c(c(O)c1Br)CCCC2	=	23.4
CC12CCC3C(CCC4Cc5[nH]c6ccccc6c5CC43C)C1CCC2O (stereo unspecified)	=	5.73
Cc1ccc(NC(=O)c2cc3cc(N=Nc4ccc(Br)cc4)ccc3oc2=O)cc1	>	100
Cc1c2cc[n+](C)cc2c(C)c2c1sc1ccccc12	=	2.4
NC1=NC(=O)/C(=C/c2ccccc2[N+](=O)[O-])C(N)=N1	>	100
O=C(O)C/C(=C\c1ccco1)C(=O)O	>	100
C/C=C/[C@H]1O[C@@](O)([C@@H](C)[C@H](O)[C@H](C)[C@H]2OC(=O)/C(OC)=C/C(C)=C/[C@@H](C)[C@@H](O)[C@@H](CC)[C@@H](O)[C@H](C)C/C(C)=C/C=C/[C@@H]2OC)C[C@H](OC2CC(O)C(O)C(C)O2)[C@@H]1C (stereo partly specified)	=	1.48
O=C1OC[C@@H]2[C@@H](O)CCCCCN12	>	100
Cc1ccc([N+](=O)[O-])cc1NC(=O)Nc1cccc(F)c1	=	15.7

Origin of the recorded values: PubChem BioAssay (NCI)
